- System: T. cruzi
- Test Details: T. cruzi compound wash off assay (48 h with compound, wash off, 72 h without)
- Format: cell-based, Trypanosoma cruzi
- Condition Details: Trypanosoma cruzi, read-out: IC50 Wash Off
Endpoint Name: IC50 (µM)

- Nc1nc2ccc(-c3cncc(Oc4ccc(F)cc4)c3)cc2[nH]1 [MMV 687248]: 2

* * *

- System: T. cruzi
- Test Details: T. cruzi temporal image-based assay, 24 h exposure
- Type: cell-based, Trypanosoma cruzi
- Condition Details: Trypanosoma cruzi
Endpoint Name: Emax (%)

- CCc1ccccc1-n1c(C)cn2c3c(=O)n(C(C(=O)OC)C(C)C)c(=O)n(C)c3nc12 (stereo not shown): 80
- O=C(NCc1nnc2n1CCCCC2)c1ccc(-c2ccc(F)cc2)o1: 91
- COc1ccc(S(=O)(=O)Nc2ccc(CN3CCN(C(=O)c4cccc(C#N)c4)CC3)cc2)cc1: 90
- CC1CCCCN1C(=O)NCCc1coc(-c2ccc(F)cc2)n1 (stereo not shown): 86
- O=C(Nc1ccc2c(c1)B(O)OC2)c1ccccc1C(F)(F)F: 93
- O=C(NCCc1ccn(-c2ccccc2)n1)C1CCCCC1: 89
- Cc1ccc(S(=O)(=O)Nc2ccc(CN3CCN(C(=O)c4cccc(C#N)c4)CC3)cc2)cc1: 91
